- assay: Tmax in BALB/c mouse at 10 mg/kg administered via oral gavage as bolus dose by LC-MS/MS method
- Assay type: ADME, organism-based
- condition set: in vivo
observed property: Tmax (h)

>>> measured_result("Fc1ccc(Nc2cc3[nH]c(-c4ccc(F)c(C(F)(F)F)c4)nc3cn2)nc1")
1.7

---

- assay: Kinetic solubility of the compound in phosphate buffered saline at pH 6.5 after 20 hrs by shake flask method
- Assay type: physicochemical
- condition set: read-out: Kinetic_solubility
observed property: solubility kinetic at 20 h

>>> measured_result("FC(F)(F)c1cccc(-c2nc3cnc(Nc4ccccn4)cc3[nH]2)c1")
"< 5 µM"
>>> measured_result("O=C(O)c1ccnc(Nc2cc3[nH]c(-c4ccc(C(F)(F)F)nc4)nc3cn2)c1")
"< 5 µM"
>>> measured_result("Fc1ccc(Nc2cc3[nH]c(-c4ccc(F)c(F)c4)nc3cn2)nc1")
"< 5 µM"
>>> measured_result("COc1ccnc(Nc2cc3[nH]c(-c4cccc(C(F)(F)F)c4)nc3cn2)c1")
"< 5 µM"
>>> measured_result("CNC(=O)c1ccc(Nc2cc3[nH]c(-c4ccc(C(F)(F)F)nc4)nc3cn2)nc1")
"< 5 µM"
>>> measured_result("FC(F)(F)c1cccc(-c2nc3cnc(Nc4ccc(-c5nnn[nH]5)cn4)cc3[nH]2)c1")
"< 5 µM"
>>> measured_result("FC(F)(F)c1ccc(-c2nc3cnc(Nc4ccccn4)cc3[nH]2)cn1")
"< 5 µM"
>>> measured_result("FC(F)(F)c1cccc(-c2nc3cnc(Nc4ccncn4)cc3[nH]2)c1")
"< 5 µM"
>>> measured_result("FC(F)(F)c1ccc(Nc2cc3[nH]c([C@H]4CC[C@H](C(F)(F)F)CC4)nc3cn2)nc1")
"< 5 µM"
>>> measured_result("COc1ccc(Nc2cc3[nH]c(-c4cccc(C(F)(F)F)c4)nc3cn2)nc1")
"< 5 µM"
>>> measured_result("FC(F)(F)c1ccc(Nc2cc3[nH]c(-c4cccc(C(F)(F)F)c4)nc3cn2)nc1")
"< 5 µM"
>>> measured_result("Fc1ccc(-c2nc3cnc(Nc4ccccn4)cc3[nH]2)cc1F")
"< 5 µM"
>>> measured_result("FC(F)(F)c1ccc(Nc2cc3[nH]c(C4CC4)nc3cn2)nc1")
"< 5 µM"
>>> measured_result("FC1(F)CCC(c2nc3cnc(Nc4ccc(C(F)(F)F)cn4)cc3[nH]2)CC1")
"99 µM"
>>> measured_result("Fc1cnc(Nc2cc3[nH]c(-c4cccc(C(F)(F)F)c4)nc3cn2)c(F)c1")
"< 5 µM"
>>> measured_result("FC(F)(F)c1ccc(Nc2cc3[nH]c(CC4CC4)nc3cn2)nc1")
"118 µM"
>>> measured_result("FC1(F)CCC(c2nc3cnc(Nc4ccc(C(F)(F)F)cn4)cc3[nH]2)C1 (stereo not given)")
"120 µM"
>>> measured_result("NC(=O)c1ccc(Nc2cc3[nH]c(-c4cccc(C(F)(F)F)c4)nc3cn2)nc1")
"< 5 µM"
>>> measured_result("Fc1ccc(Nc2cc3[nH]c(-c4ccc(F)c(C(F)(F)F)c4)nc3cn2)nc1")
"< 5 µM"
>>> measured_result("FC1(F)CC(c2nc3cnc(Nc4ccc(C(F)(F)F)cn4)cc3[nH]2)C1")
"118 µM"
